The origin of these recorded values is patent US11149031B2.

# Subject of test: ERα in MCF7 cells (Homo sapiens (Human), UniProt P03372)
# Sequence (P03372 whole entry): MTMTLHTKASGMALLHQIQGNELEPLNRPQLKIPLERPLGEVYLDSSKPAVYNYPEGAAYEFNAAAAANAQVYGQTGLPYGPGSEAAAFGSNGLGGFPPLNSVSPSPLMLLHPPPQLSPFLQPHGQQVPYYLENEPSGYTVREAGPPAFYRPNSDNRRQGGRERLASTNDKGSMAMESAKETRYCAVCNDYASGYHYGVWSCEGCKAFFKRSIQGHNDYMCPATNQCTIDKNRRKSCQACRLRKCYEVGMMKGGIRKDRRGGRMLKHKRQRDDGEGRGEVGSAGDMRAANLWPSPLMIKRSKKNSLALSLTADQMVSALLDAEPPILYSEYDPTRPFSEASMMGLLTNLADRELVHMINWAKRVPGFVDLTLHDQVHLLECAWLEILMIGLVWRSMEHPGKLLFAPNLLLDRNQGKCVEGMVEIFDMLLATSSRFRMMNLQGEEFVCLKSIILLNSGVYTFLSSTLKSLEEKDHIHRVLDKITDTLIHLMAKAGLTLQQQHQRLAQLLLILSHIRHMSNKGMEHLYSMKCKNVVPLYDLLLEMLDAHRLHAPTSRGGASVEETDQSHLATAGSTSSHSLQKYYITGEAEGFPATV
# Test description: Test C: estrogen receptor degradation activity, ERα in cell western assay in MCF7 cells
# Format: cell-based
# Experimental setup: 4 hours post compound addition, ERα in cell western, read-out: Degradation IC50
Rule: measured DC50 below 0.8 nM gets satisfied; anything equal to or greater than 0.8 nM gets not satisfied.

Request: Bench note: check whether [O-][S+]1CCC(c2ccc(OC(F)(F)F)cc2)=C(c2ccc(O[C@H]3CCN(CCCF)C3)cc2)c2ccc(O)cc21 (some centres unmarked) [Example 225] shows DC50 below 0.8 nM
Response: not satisfied

Request: Bench note: check whether `Cc1cc(C2=C(c3ccc(O[C@H]4CCN(CCCF)C4)cc3)c3ccc(O)cc3OCC2)ccc1Cl` shows DC50 below 0.8 nM
Response: satisfied

Request: Bench note: check whether `Oc1ccc2c(c1)SCCC(c1ccc3c(c1)CCN3)=C2c1ccc(O[C@H]2CCN(CCCF)C2)cc1` shows DC50 below 0.8 nM
Response: satisfied

Request: Bench note: check whether `Oc1ccc2c(c1Cl)OCCC(c1cccc3[nH]ccc13)=C2c1ccc(O[C@H]2CCN(CCCF)C2)cc1` shows DC50 below 0.8 nM
Response: not satisfied

Request: Bench note: check whether `Nc1ccc(C2=C(c3ccc(O[C@H]4CCN(CCCF)C4)cc3)c3ccc(O)cc3SCC2)c(F)n1` shows DC50 below 0.8 nM
Response: satisfied

Request: Bench note: check whether `Oc1ccc2c(c1)SCC(c1ccc(F)cc1Cl)=C2c1ccc(O[C@H]2CCN(CCCF)C2)cc1` shows DC50 below 0.8 nM
Response: not satisfied

Request: Bench note: check whether `Cc1c(Cl)cccc1C1=C(c2ccc(O[C@H]3CCN(CCCF)C3)cc2)c2ccc(O)c(C)c2OCC1` shows DC50 below 0.8 nM
Response: not satisfied

Request: Bench note: check whether `Oc1ccc2c(c1)C(c1ccc(O[C@H]3CCN(CCCF)C3)cc1)=C(C1=CCOCC1)CC2` shows DC50 below 0.8 nM
Response: not satisfied

Request: Bench note: check whether `Cc1cc(C2=C(c3ccc(O[C@H]4CCN(CCCF)C4)cc3)c3ccc(O)cc3SC2)ccc1Cl` shows DC50 below 0.8 nM
Response: not satisfied

Request: Bench note: check whether `CC(C)(C)OC(=O)N1CCOc2ccc(C3=C(c4ccc(O[C@H]5CCN(CCCF)C5)cc4)c4ccc(O)cc4SC3)cc21` shows DC50 below 0.8 nM
Response: not satisfied

* * *

# Tested on: MCF7 cells (breast tumor cells) WT
# Test description: Test B: cell proliferation/viability assay (CellTiter-Glo) on MCF7 WT
# Assay type: cell-based
# Experimental setup: Homo sapiens, MCF7, 168 h, 7 days of compound exposure
Kindly supply the reported pIC50 values for the records listed here.
// scale note: pIC50 = -log10(conc_M); give the bare number

Request: For the compound `Cc1ccc(C2=C(c3ccc(O[C@H]4CCN(CCCF)C4)cc3)c3ccc(O)cc3OCC2)c(F)c1` , what pIC50 is on record?
Response: 8.70

Request: For the compound `Oc1ccc2c(c1)CCCC(c1ccc(OC(F)(F)F)cc1)=C2c1ccc(N[C@H]2CCN(CCCF)C2)cc1` , what pIC50 is on record?
Response: 9.70

Request: For the compound `Cc1cc(C2=C(c3ccc(O[C@H]4CCN(CCCF)C4)nc3)c3ccc(O)c(F)c3CCC2)ccc1Cl` , what pIC50 is on record?
Response: 9.52

Request: For the compound `Oc1ccc2c(c1)SCCC(c1ccc3occc3c1)=C2c1ccc(O[C@H]2CCN(CCCF)C2)cc1` , what pIC50 is on record?
Response: 9.52

* * *

# System: MCF7 cells (breast tumor cells) WT
# Test description: Test B: cell proliferation/viability assay (CellTiter-Glo) on MCF7 WT
# Type: cell-based
# Experimental setup: Homo sapiens, MCF7, 168 h, 7 days of compound exposure
Recorded endpoint: pIC50
// scale note: pIC50 = -log10(conc_M); give the bare number

Request: For the compound `Oc1ccc2c(c1)SCC(c1ccc(C(F)F)cc1F)=C2c1ccc(O[C@H]2CCN(CCCF)C2)cc1` , what pIC50 is on record?
Response: 9.40

Request: For the compound `Oc1ccc2c(c1)C(c1ccc(N[C@H]3CCN(CCCF)C3)cc1)=C(c1ccc(F)cc1Cl)CC2` , what pIC50 is on record?
Response: 9.40

Request: For the compound `Oc1ccc2c(c1)SCC(c1ccc3c(c1)OC(F)(F)O3)=C2c1ccc(O[C@H]2CCN(CCCF)C2)cc1` , what pIC50 is on record?
Response: 9.40

* * *

# Subject of test: ERα in MCF7 cells (Homo sapiens (Human))
# Test description: Test C: estrogen receptor degradation activity, ERα in cell western assay in MCF7 cells
# Type: cell-based
# Experimental setup: at 3 μM, 4 hours, relative to fulvestrant
Kindly supply the reported % Degradation at 3 μM values for the records listed here.
// units = %; emit number, no label

Request: Give % Degradation at 3 μM (ERα in MCF7 cells (Homo sapiens (Human))) of the following compound: `COCCOc1ccc(C2=C(c3ccc(O[C@H]4CCN(CCCF)C4)cc3)c3ccc(O)cc3OCC2)cc1`
Response: 86

Request: Give % Degradation at 3 μM (ERα in MCF7 cells (Homo sapiens (Human))) of the following compound: `Oc1ccc2c(c1)CCCC(c1ccc(Cl)c(F)c1)=C2c1cnc(O[C@H]2CCN(CCCF)C2)cn1`
Response: 91

Request: Give % Degradation at 3 μM (ERα in MCF7 cells (Homo sapiens (Human))) of the following compound: `Oc1ccc2c(c1)SCCC(c1ccc(OC(F)(F)F)cc1F)=C2c1ccc(O[C@H]2CCN(CCCF)C2)cc1`
Response: 90

Request: Give % Degradation at 3 μM (ERα in MCF7 cells (Homo sapiens (Human))) of the following compound: `Oc1ccc2c(c1)SCCC(c1ccc3occc3c1)=C2c1ccc(O[C@H]2CCN(CCCF)C2)cc1`
Response: 87

Request: Give % Degradation at 3 μM (ERα in MCF7 cells (Homo sapiens (Human))) of the following compound: `Oc1ccc(C2=C(c3ccc(O[C@H]4CCN(CCCF)C4)cc3)c3ccc(O)cc3OCC2)c(F)c1`
Response: 87

* * *

Kindly supply the reported IC50 values for the records listed here.
# Test system: MCF7 cells (breast tumor cells) WT
# Test description: Test B: cell proliferation/viability assay (CellTiter-Glo) on MCF7 WT
# Type: cell-based
# Experimental setup: Homo sapiens, MCF7, 168 h, 7 days of compound exposure
// units = nM; emit number, no label

Request: For the compound `Oc1ccc2c(c1)SCC(c1ccc(Cl)cc1F)=C2c1ccc(O[C@H]2CCN(CCCF)C2)cc1` , what IC50 is on record?
Response: 0.5

Request: For the compound `Oc1ccc2c(c1)OCCC(c1ccc(OCCN3CCCC3)cc1)=C2c1ccc(O[C@H]2CCN(CCCF)C2)cc1` , what IC50 is on record?
Response: 52

Request: For the compound `Cc1cc(C2=C(c3ccc(O[C@H]4CCN(CCCF)C4)cc3)c3ccc(O)cc3SC2)ccc1Cl` , what IC50 is on record?
Response: 0.4

Request: For the compound `CCOc1ccc(C2=C(c3ccc(O[C@H]4CCN(CCCF)C4)nc3)c3ccc(O)c(F)c3CCC2)c(F)n1` , what IC50 is on record?
Response: 0.6

Request: For the compound `CC1(C)Cc2cc(C3=C(c4ccc(O[C@H]5CCN(CCCF)C5)cc4)c4ccc(O)cc4SC3)ccc2N1` , what IC50 is on record?
Response: 0.4

Request: For the compound `CC(C)(C)c1ccc(C2=C(c3ccc(O[C@H]4CCN(CCCF)C4)cc3)c3cc(O)ccc3CC2)cc1` , what IC50 is on record?
Response: 44

Request: For the compound `Oc1ccc2c(c1)SCC(c1ccc(OC(F)F)cc1F)=C2c1ccc(O[C@H]2CCN(CCCF)C2)cc1` , what IC50 is on record?
Response: 0.2

Request: For the compound `Oc1ccc2c(c1)OCCC(c1ccc3c(c1)NCC3)=C2c1ccc(O[C@H]2CCN(CCCF)C2)cc1` , what IC50 is on record?
Response: 6

* * *

Kindly supply the reported pIC50 values for the records listed here.
# Subject of test: His6-ERα298-554 WT (ERα ligand-binding domain) (Homo sapiens (Human), UniProt P03372)
# Test description: Test A: biochemical antagonist activity, LanthaScreen TR-FRET ERα coactivator assay, WT
# Experimental setup: asterisk (*): protocol using 10 nM estradiol; read-out: Antagonism WT IC50
// scale note: pIC50 = -log10(conc_M); give the bare number

Request: Give pIC50 (His6-ERα298-554 WT (ERα ligand-binding domain) (Homo sapiens (Human), UniProt P03372)) of the following molecule: `Oc1ccc2c(c1)CCCC(c1ccc(Cl)cc1Cl)=C2c1ccc(O[C@H]2CCN(CCCF)C2)nc1`
Response: 7.89

Request: Give pIC50 (His6-ERα298-554 WT (ERα ligand-binding domain) (Homo sapiens (Human), UniProt P03372)) of the following molecule: `COc1ccc(C2=C(c3ccc(O[C@H]4CCN(CCCF)C4)cc3)c3ccc(O)cc3SCC2)c(F)c1`
Response: 8.70

Request: Give pIC50 (His6-ERα298-554 WT (ERα ligand-binding domain) (Homo sapiens (Human), UniProt P03372)) of the following molecule: `CCOc1ccc(C2=C(c3ccc(O[C@H]4CCN(CCCF)C4)cc3)c3ccc(O)cc3SC2)c(F)c1Cl`
Response: 6.50

Request: Give pIC50 (His6-ERα298-554 WT (ERα ligand-binding domain) (Homo sapiens (Human), UniProt P03372)) of the following molecule: `Nc1ccc(C2=C(c3ccc(O[C@H]4CCN(CCCF)C4)cc3)c3ccc(O)cc3SCC2)c(F)n1`
Response: 8.70

Request: Give pIC50 (His6-ERα298-554 WT (ERα ligand-binding domain) (Homo sapiens (Human), UniProt P03372)) of the following molecule: `Oc1ccc2c(c1)OCCC(c1ccc(OCCN3CCCC3)cc1)=C2c1ccc(O[C@H]2CCN(CCCF)C2)cc1`
Response: 6.41

Request: Give pIC50 (His6-ERα298-554 WT (ERα ligand-binding domain) (Homo sapiens (Human), UniProt P03372)) of the following molecule: `Oc1ccc2c(c1)OCCC(c1ccc(OC3CC3)cc1)=C2c1ccc(O[C@H]2CCN(CCCF)C2)cc1`
Response: 7.64
